// data source = patent US6403574B1

measured.metric: melting point

- C#CCNC(=O)N1CC(OCc2ccc(F)cc2)C1: 94 to 96 °C
- C#CCNC(=O)N1CC(OCc2ccc(Cl)cc2)C1: 123 to 124 °C
- C[C@@H](O)CNC(=O)N1CC(OCc2ccc(C(F)(F)F)cc2)C1: 97 to 98 °C
- C[C@@H](O)CNC(=O)N1CC(OCc2ccc(F)cc2)C1: 72 to 73 °C
- C=CCNC(=O)N1CC(OCc2ccccc2)C1: 76 to 77 °C
- C=CCNC(=O)N1CC(OCc2cc(F)ccc2F)C1: 75 °C
- C[C@H](O)CNC(=O)N1CC(OCc2ccc(Cl)c(Cl)c2)C1: 88 to 89 °C
- C=CCNC(=O)N1CC(OCc2cccc(C(F)(F)F)c2)C1: 108 °C
- CCCNC(=O)N1CC(OCc2ccc(C(F)(F)F)cc2)C1: 128 to 129 °C
- C=CCNC(=O)N1CC(OCc2ccc(C#N)cc2)C1: 95 to 96 °C
- C#CCNC(=O)N1CC(OCc2ccc(C(C)(C)C)cc2)C1: 94 to 96 °C
- C[C@@H](O)CNC(=O)N1CC(OCc2cccc(C(F)(F)F)c2)C1: 67 to 68 °C
- C=CCNC(=O)N1CC(OCc2ccc(F)c(F)c2)C1: 82.5 to 85 °C
- C[C@H](O)CNC(=O)N1CC(OCc2cccc(C(F)(F)F)c2)C1: 67 to 68 °C
- C[C@H](O)CNC(=O)N1CC(OCc2ccc(Cl)cc2)C1 [Example 24]: 85 to 86 °C
- C=CCNC(=O)N1CC(OCc2ccc(F)cc2F)C1: 91 to 92.5 °C
- C[C@H](O)CNC(=O)N1CC(OCc2ccc(C(F)(F)F)cc2)C1: 97 to 98 °C
- C=CCNC(=O)N1CC(OCc2ccc(C(C)(C)C)cc2)C1: 79 to 80 °C
- C=CCNC(=O)N1CC(OCc2cc(F)cc(F)c2)C1: 79 °C
- C=CCNC(=O)N1CC(OCc2ccc(C(F)(F)F)cc2)C1: 120 °C
- CCCNC(=O)N1CC(OCc2cccc(C(F)(F)F)c2)C1: 62 to 63 °C
- C=CCNC(=O)N1CC(OCc2cccc(F)c2)C1: 59 to 60 °C
- C=CCNC(=O)N1CC(OCc2cc(C(F)(F)F)cc(C(F)(F)F)c2)C1: 80.5 to 81.5 °C
- C=CCNC(=O)N1CC(OCc2ccc(Cl)cc2Cl)C1: 100 °C
- C[C@@H](O)CNC(=O)N1CC(OCc2ccc(Cl)c(Cl)c2)C1: 88 to 89 °C
- C[C@H](O)CNC(=O)N1CC(OCc2ccc(F)cc2)C1: 73 to 74 °C
- C=CCNC(=O)N1CC(OCc2ccccc2C(F)(F)F)C1: 63 °C
- C=CCNC(=O)N1CC(OCc2ccc(Cl)c(Cl)c2)C1: 88 to 89 °C
- C=CCNC(=O)N1CC(OCc2ccc(-c3ccccc3)cc2)C1: 160 °C
- C=CCNC(=O)N1CC(OCc2ccc(Cl)cc2)C1: 110 to 111 °C
- C=CCNC(=O)N1CC(OCc2cccc(Cl)c2)C1: 67 to 68 °C
- CCCNC(=O)N1CC(OCc2ccc(Cl)c(Cl)c2)C1: 89 to 90 °C
- C[C@H](O)CNC(=O)N1CC(OCc2ccc(Cl)cc2)C1 [Example 36]: 76 to 78 °C
- C=CCNC(=O)N1CC(OCc2ccc3ccccc3c2)C1: 141 to 142 °C
- C#CCNC(=O)N1CC(OCc2cccc(C(F)(F)F)c2)C1: 90 to 91 °C

====

molecular target: GABAA receptor; assay: Binding affinity to the GABAA receptor with [35S]-TBPS; settings: membranes from rat fore-brain; [35S]-TBPS 1 nM; read-out: IC50, concentration required to displace 50% of the specific [35S]-TBPS binding
# note: boundary value 60 µM maps to not met; IC50 below it maps to met

- C=CCNC(=O)N1CC(OCc2cccc(C(F)(F)F)c2)C1: not met
- C=CCNC(=O)N1CC(OCc2ccc(Cl)c(Cl)c2)C1: met
- C[C@@H](O)CNC(=O)N1CC(OC(c2ccc(Cl)cc2)c2ccc(Cl)cc2)C1: met
- C=CCNC(=O)N1CC(OCc2ccc(C(F)(F)F)cc2)C1: not met
- C=CCNC(=O)N1CC(OC(c2ccc(Cl)cc2)c2ccc(Cl)cc2)C1: not met
